src = PubChem BioAssay AID720509

target: Fibrinogen beta chain (Homo sapiens) (UniProt P02675); experiment: inhibitors of Tn6 peptide binding to fibrin DD(E), primary screen, biochemical, fluorescence polarization, human fibrin, Tn6 probe (AID 720509); conditions: Fibrin DD(E) TRITC-Tn6 fluorescence polarization displacement; at 8.3 µM; hits give high values;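 further: 0% = median of all compound wells on the plate and 100% = blocking peptide control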
Sequence (P02675 whole entry, looked up): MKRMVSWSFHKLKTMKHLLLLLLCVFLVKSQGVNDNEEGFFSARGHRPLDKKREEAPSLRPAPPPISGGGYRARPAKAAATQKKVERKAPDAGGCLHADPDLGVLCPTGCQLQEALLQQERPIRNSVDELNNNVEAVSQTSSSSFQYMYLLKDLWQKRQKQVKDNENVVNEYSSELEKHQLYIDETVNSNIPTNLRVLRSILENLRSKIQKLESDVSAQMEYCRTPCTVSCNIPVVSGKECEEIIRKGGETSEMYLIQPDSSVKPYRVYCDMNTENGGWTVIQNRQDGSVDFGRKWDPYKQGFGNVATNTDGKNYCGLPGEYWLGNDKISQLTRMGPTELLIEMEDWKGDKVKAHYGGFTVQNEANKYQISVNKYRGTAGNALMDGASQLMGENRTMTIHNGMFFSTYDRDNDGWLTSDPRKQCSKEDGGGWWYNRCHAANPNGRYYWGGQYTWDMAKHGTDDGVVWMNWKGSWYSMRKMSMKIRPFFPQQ
About 760 (0.21%) of roughly 370,000 compounds were called active. The list comes from a sample in which actives are over-represented; it also holds close analogues and randomly drawn compounds.
Observation type: inhibition (%)
Record the value in %, omitting the unit from your answer.

Give the measured inhibition of "COc1ccc2c(c1)CC[C@@H]1[C@@H]2CC[C@]2(C)C(=O)CC[C@@H]12" . 5.66

Also need "CC(=O)n1cc([C@@H]2C=C(C(=O)N3CCN(Cc4ccc5c(c4)OCO5)CC3)O[C@H](OCc3ccc(CO)cc3)C2)c2ccccc21" , thanks. 3.52

Also need "Cn1cc(-c2ccccc2)cc(C#N)c1=O" , thanks. -5.81

Also need "O=c1cc(Cn2nnc(-c3ccc(Cl)cc3)n2)nc2sccn12" , thanks. 16.1

Also need "O=C(NCCNc1ccccc1[N+](=O)[O-])c1ccccc1F" , thanks. 16.1

Also need "COc1ccc2c(c1)c1ncn(Cc3ccccn3)c(=O)c1n2C" , thanks. -7.12

Also need "Cc1c(C(=O)NCCCc2ccccc2)cccc1[N+](=O)[O-]" , thanks. 7.53
